pKd: recorded values
# system_name: BRD4 (Homo sapiens)
Scale: negative log10 of molar concentration, which is what pKd denotes.

Reference set (4 entries):
{"compound": "CCS(=O)(=O)Cc1cnc(Oc2c(F)cc(F)cc2OCCCCOc2ccc(/C=C/c3cc(OC)cc(OC)c3)cc2)c(-c2cc(C)c3c(=O)[nH]ccn23)c1", "system_name": "BRD4 (Homo sapiens)", "pKd": 8.84}
{"compound": "CCS(=O)(=O)Cc1cnc(Oc2c(F)cc(F)cc2OCc2nc(COc3ccc(/C=C/c4cc(OC)cc(OC)c4)cc3)c[nH]2)c(-c2cc(C)c3c(=O)[nH]ccn23)c1", "system_name": "BRD4 (Homo sapiens)", "pKd": 7.91}
{"compound": "CCS(=O)(=O)Cc1cnc(Oc2c(F)cc(F)cc2OC[C@@H]2CCC[C@H](COc3ccc(/C=C/c4cc(OC)cc(OC)c4)cc3)N2)c(-c2cc(C)c3c(=O)[nH]ccn23)c1", "system_name": "BRD4 (Homo sapiens)", "pKd": 8.27}
{"compound": "CCS(=O)(=O)Cc1cnc(Oc2c(F)cc(F)cc2O/C=C\\CC(=O)COc2ccc(/C=C/c3cc(OC)cc(OC)c3)cc2)c(-c2cc(C)c3c(=O)[nH]ccn23)c1", "system_name": "BRD4 (Homo sapiens)", "pKd": 8.44}

Find the recorded pKd belonging to CCS(=O)(=O)Cc1cnc(Oc2c(F)cc(F)cc2OCC2CCC(COc3ccc(C=Cc4cc(OC)cc(OC)c4)cc3)N2)c(-c2cc(C)c3c(=O)[nH]ccn23)c1 (centres unmarked) and report it.
8.01
